Biological target: T1, human MSR1 extracellular domain expressed with a N-terminal nonahistidine tag (human, UniProt P21757 77-451)
T1 construct: extracellular domain; also called His9-hMSR1; His-hMSR1
T1 sequence: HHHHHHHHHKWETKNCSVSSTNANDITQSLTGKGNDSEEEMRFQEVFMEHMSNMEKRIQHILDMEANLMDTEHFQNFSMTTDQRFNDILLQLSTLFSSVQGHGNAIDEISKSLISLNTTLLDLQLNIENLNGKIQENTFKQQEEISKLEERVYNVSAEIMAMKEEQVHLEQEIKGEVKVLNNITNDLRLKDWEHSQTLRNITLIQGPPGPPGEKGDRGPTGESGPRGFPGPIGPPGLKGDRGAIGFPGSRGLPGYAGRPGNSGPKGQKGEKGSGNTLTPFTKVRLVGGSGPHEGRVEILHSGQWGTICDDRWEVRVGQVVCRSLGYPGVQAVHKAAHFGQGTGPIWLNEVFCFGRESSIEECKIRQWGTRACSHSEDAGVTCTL
Assay: competition ELISA, plate-coated His9-hMSR1; 300 nM antibody, competitor ligand biot-AGE-BSA
test.readout: % Blocking (%)
A number alone suffices; assume %.

Please list % Blocking recorded for the binder H1H27731P-N297Q (antibody, V domains shown, Human IgG1 Fc with N297Q) VH: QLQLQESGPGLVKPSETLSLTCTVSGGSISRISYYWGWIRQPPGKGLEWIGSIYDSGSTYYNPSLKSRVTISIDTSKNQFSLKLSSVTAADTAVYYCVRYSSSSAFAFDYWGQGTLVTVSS VL: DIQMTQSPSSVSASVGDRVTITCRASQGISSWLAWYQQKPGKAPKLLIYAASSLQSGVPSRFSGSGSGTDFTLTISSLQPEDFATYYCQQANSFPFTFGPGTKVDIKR
4

Note % Blocking for the binder shown: H1H27729P-N297Q (antibody, V domains shown, Human IgG1 Fc with N297Q) VH: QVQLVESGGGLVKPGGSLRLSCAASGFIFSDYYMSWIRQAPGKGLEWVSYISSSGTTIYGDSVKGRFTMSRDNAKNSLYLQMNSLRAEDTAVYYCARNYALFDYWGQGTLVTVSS VL: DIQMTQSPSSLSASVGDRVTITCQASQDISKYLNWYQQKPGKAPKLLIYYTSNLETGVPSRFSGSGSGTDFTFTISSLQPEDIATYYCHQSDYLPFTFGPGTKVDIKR
15

Return value of % Blocking for input H1H27739P-N297Q (antibody, V domains shown, Human IgG1 Fc with N297Q) VH: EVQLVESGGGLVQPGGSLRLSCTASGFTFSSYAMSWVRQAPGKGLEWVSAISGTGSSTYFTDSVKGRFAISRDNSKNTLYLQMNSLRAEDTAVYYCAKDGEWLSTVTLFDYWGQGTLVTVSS VL: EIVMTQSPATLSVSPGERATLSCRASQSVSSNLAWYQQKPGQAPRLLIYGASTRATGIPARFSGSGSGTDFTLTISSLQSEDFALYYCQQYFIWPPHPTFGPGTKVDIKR , no commentary.
-9

State its % Blocking: H2aM25695N (antibody, mouse IgG2a, V domains shown, Human variable domains with mouse IgG2a Fc) VH: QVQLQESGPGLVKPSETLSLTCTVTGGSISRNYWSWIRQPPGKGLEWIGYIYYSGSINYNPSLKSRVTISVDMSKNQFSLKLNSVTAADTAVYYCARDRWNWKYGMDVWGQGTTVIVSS VL: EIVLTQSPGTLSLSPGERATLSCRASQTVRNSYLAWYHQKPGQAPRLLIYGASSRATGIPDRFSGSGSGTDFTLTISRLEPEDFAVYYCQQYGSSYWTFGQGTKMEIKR
16

State its % Blocking for this binder: H1H21234N (antibody, V domains shown, Original human IgG1 Fc) VH: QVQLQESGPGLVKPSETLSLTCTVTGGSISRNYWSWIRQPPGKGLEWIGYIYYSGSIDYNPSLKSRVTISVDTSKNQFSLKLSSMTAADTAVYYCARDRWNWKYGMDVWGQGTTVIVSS VL: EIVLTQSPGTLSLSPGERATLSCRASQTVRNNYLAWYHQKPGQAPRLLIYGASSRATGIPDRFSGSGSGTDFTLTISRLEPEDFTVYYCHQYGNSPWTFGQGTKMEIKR
21

// data source = patent US20190367631A1
